biological target: T1, mouse programmed cell death protein 1 Fc fusion protein (mPD-1-Fc), mPD-1 C60S (aa 25-167) (Mus musculus, UniProt Q02242, stabilised); test: SPR; Carterra LSA; Fab from the ammonium sulfate precipitate of the culture supernatant immobilised on a NiHC200M chip; hPD-1 (1-1024 nM) or mPD-1-Fc (4-1024 nM) as analyte, fourfold dilution series, no regeneration; HBS-EP pH 7.4, 25 °C; medians over the spots of a construct, KD = koff/kon; conditions: one partner purified
T1 construct: not cleaved; source: Expi293F, purified (Protein A, SEC; dimeric fraction); not shown: Fc (human), C-terminal, kept
resultType: koff (s⁻¹)

binder	resultType	unitAbbrev	recordedResult
toripalimab Fab L.S61Y (Fab, V domains shown, as the heavy chain of Sm3; light chain of Sm3 with this change; numbers count from the chain's first residue; source: Brevibacillus, culture supernatant (ammonium sulfate precipitate); not shown: 6xHis, C-terminal, kept; 6xHN, C-terminal, kept) VH: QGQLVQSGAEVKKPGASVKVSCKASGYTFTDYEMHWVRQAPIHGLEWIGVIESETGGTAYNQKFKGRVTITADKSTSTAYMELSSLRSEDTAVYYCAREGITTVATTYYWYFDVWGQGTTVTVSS VL: DVVMTQSPLSLPVTLGQPASISCRSSQSIVHSNGNTYLEWYLQKPGQSPQLLIYKVSNRFYGVPDRFSGSGSGTDFTLKISRVEAEDVGVYYCFQGSHVPLTFGQGTKLEIK	koff	s⁻¹	0.0044
toripalimab Fab L.P100T (Fab, V domains shown, as the heavy chain of Sm3; light chain of Sm3 with this change; numbers count from the chain's first residue; source: Brevibacillus, culture supernatant (ammonium sulfate precipitate); not shown: 6xHis, C-terminal, kept; 6xHN, C-terminal, kept) VH: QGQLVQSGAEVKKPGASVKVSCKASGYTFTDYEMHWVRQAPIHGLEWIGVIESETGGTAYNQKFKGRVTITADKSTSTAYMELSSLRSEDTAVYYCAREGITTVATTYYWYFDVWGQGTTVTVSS VL: DVVMTQSPLSLPVTLGQPASISCRSSQSIVHSNGNTYLEWYLQKPGQSPQLLIYKVSNRFSGVPDRFSGSGSGTDFTLKISRVEAEDVGVYYCFQGSHVTLTFGQGTKLEIK	koff	s⁻¹	0.000259
